# procedure-text: Toxicity liver stage against HepG2, at 10uM
# Format: cell-based
# Parameters: test concentration 10 uM, cell line HepG2-A16-CD81EGFP
# test-context: human, HepG2-A16-CD81EGFP cells; read-out: INHIBITION
Listed next: entries and their corresponding cytotoxicity at 10 µM.

molecule	output-unit	cytotoxicity at 10 µM
CCCc1ccc(CN2CCC3(CC2)CNC(=O)C3)o1	%	-3.71
CCCN(Cc1ccccn1)Cc1ccccc1OC	%	-43.3
Cc1nnc(CN(Cc2ccccc2Br)C2CC2)o1	%	5.2
O=C(Cc1cccs1)NCC1(O)CCc2ccccc2C1 (configuration not stated)	%	-10.1
O=C(c1cccc(F)c1)N1C[C@H]2CN(Cc3ccccn3)C[C@H]2C1	%	-1.92
Cc1ccc(F)cc1S(=O)(=O)Nc1ccc2c(C(=O)O)c[nH]c2c1	%	-3.53
Cc1n[nH]c2c1C(c1ccc3c(c1)OCO3)SCC(=O)N2 (configuration not stated)	%	3.46
Cc1ccnc(SCC(=O)Nc2csc3nc(=O)c(C)nn23)n1	%	12.2
CO[C@@H]1CC[C@H]2[C@H]1OCCN2S(=O)(=O)c1cn(C)cn1	%	5.32
CCC(C)NC(=O)CN1CCC2(CC1)OCCO2 (configuration not stated)	%	-4.92
Cc1cc2nc(C(C)C)cc(NCCc3cccn3C)n2n1	%	0.407
CCOc1ccccc1NC(=O)N(CCO)Cc1ccsc1	%	0.633

====

# procedure-text: Toxicity liver stage against HepG2, at 10uM
# Type: cell-based
# Set-up: test concentration 10 uM, cell line HepG2-A16-CD81EGFP
# test-context: human, HepG2-A16-CD81EGFP cells; read-out: INHIBITION

compound	output-unit	cytotoxicity at 10 µM
CCCNC(=O)c1cccc2ncccc12	%	-50.3
CC(C)Cc1nc(CCn2cncn2)n(-c2ccc3c(c2)OCCO3)n1	%	12.5
CC(C)Oc1cccc(F)c1C(C(=O)O)N1CCCC1 (stereo unspecified)	%	-3.33
FC(F)(F)CCc1ccnc(N2CCN(CCc3ccncc3)CC2)n1	%	-5.86
O=C(CN1CCCC(O)C1)NC(=O)NCc1cccs1 (stereo unspecified)	%	0.795
NCC(=O)N1CCC(c2cccc(Oc3ccccc3)n2)CC1	%	9.43

====

# procedure-text: Toxicity liver stage against HepG2, at 10uM
# Format: cell-based
# Design: test concentration 10 uM, cell line HepG2-A16-CD81EGFP
# test-context: human, HepG2-A16-CD81EGFP cells; read-out: INHIBITION
cytotoxicity at 10 µM values for the compounds below.

compound	output-unit	cytotoxicity at 10 µM
CNC(=O)C1(C)CN(c2nc(C)cc(C)n2)CCO1 (stereo unspecified)	%	7.92
NC(=O)CCn1nnc(-c2cc3ccccc3o2)n1	%	4.56
COc1cc(CNCC(C)O)cc(Cl)c1OCc1ccc(C)cc1 (stereo unspecified)	%	-5.23
CC1CCCN(Cc2csc(-c3ncccn3)n2)CC1 (stereo unspecified)	%	2.73
Cc1n[nH]c(C)c1C1COCCN1C(=O)c1ccc(Cl)o1 (stereo unspecified)	%	-1.01
CC(C)(C)NS(=O)(=O)c1cc(NC(=O)C2CC2)ccc1F	%	-10.6

====

# procedure-text: Toxicity liver stage against HepG2, at 10uM
# Type: cell-based
# Set-up: test concentration 10 uM, cell line HepG2-A16-CD81EGFP
# test-context: human, HepG2-A16-CD81EGFP cells; read-out: INHIBITION
parameter: cytotoxicity at 10 µM (%)

molecule	numeric-result
Cc1ncc(CNC(=O)N(C)C2CCN(c3ccccc3)C2=O)s1 (centres undefined)	-14.7
Cc1nn(-c2ccc(C(=O)O)cc2)c2c1C(C(F)(F)F)SCC(=O)N2 (centres undefined)	-1.24
Cc1ccc(-n2ccc3nc(N4CCCC4)ncc3c2=O)cc1C	7.51
CC(Cc1ccco1)NC(=O)Nc1cccnc1 (centres undefined)	-6.78
Cc1cnn(CC2CCCN2C(=O)c2ccc(F)cc2Cl)c1 (centres undefined)	2.99
CCc1nc(C2CCCN2C(=O)c2ccc3c(c2)nc(C)n3C)no1 (centres undefined)	3.54
Cc1ccc(CN2Cc3nccn3CC(CN(C)C)C2)s1 (centres undefined)	-82.4
CN1CCOC(C(=O)N2CCC3(CCCC3)CC2)C1 (centres undefined)	-1.52
Cc1ccsc1CNC(=O)CC1CN(C(=O)OC(C)(C)C)C1	-4.66
CC(=O)c1c(C)nn(CC(=O)N2Cc3cnc(C(C)(C)C)nc3C2)c1C	-0.539
CC(C)COC(C)C(=O)N1CCC(C)CC1 (centres undefined)	2.95
Cc1cc(-c2cccc(-c3ccn(CCCO)n3)c2)nc(N(C)C)n1	-5.42
CCC(CO)N(Cc1ccc(F)cc1)Cc1c(C)nn(C)c1Cl (centres undefined)	8.64
Cc1nc(C2CCN(C(=O)c3cccnc3)CC2)c2sccn12	-5.35
NS(=O)(=O)CC1CCCN(C(=O)CCCC2CCCC2)C1 (centres undefined)	15.8
COCC1CC2(CCN(Cc3ccco3)CC2)CN1C(C)C (centres undefined)	0.0448
c1ccc(CN2Cc3[nH]nc(COCC4CC4)c3C2)nc1	-1.83
Cc1cc(NC(C)c2csc(C)n2)n2nc(C)c(C)c2n1 (centres undefined)	5.32
CC1CN(C(=O)Nc2ccc(Cl)c(C(=O)NC3CC3)c2)CC(C)(C)O1 (centres undefined)	6.5
NC(=O)N1CC[C@@H]2O[C@@H](COCC(=O)N3CCCC3)CC[C@@H]21	-0.356
Cc1cc(C(=O)N2CCN(C)CC2)nn1CC(=O)NCc1ccccn1	-3.58
COCC1CN(Cc2ccoc2)Cc2nnn(C)c21 (centres undefined)	-3.73
CC(CC(=O)Nc1ccc(C(=O)N(C)C)c(Cl)c1)n1cccc1 (centres undefined)	7.07
Cc1cc(NC2CCCN(Cc3ccc(F)cc3)C2)n2nc(C)cc2n1 (centres undefined)	0.0152

====

Catalogue of cytotoxicity at 10 µM readings, one per entry.
# procedure-text: Toxicity liver stage against HepG2, at 10uM
# Assay type: cell-based
# Parameters: test concentration 10 uM, cell line HepG2-A16-CD81EGFP
# test-context: human, HepG2-A16-CD81EGFP cells; read-out: INHIBITION

molecule	output-unit	cytotoxicity at 10 µM
CCOC[C@H]1CC[C@H]2[C@H](CCN2S(=O)(=O)Cc2ccccc2)O1	%	8.61
COc1cccc2sc(N(C)CC(=O)NCc3nc(C)no3)nc12	%	-1.53
Cc1cnn(CC2CCCN2CC(=O)N(C)Cc2ccc(C)o2)c1 (configuration not stated)	%	-7.19
CCN(Cc1cccc2c1OCO2)C(=O)Nc1ccncc1	%	2.58
CCn1c(C)nnc1CN(C)C1CCN(Cc2sc(C)nc2C)C1 (configuration not stated)	%	6.47
O=C1CCN(CCS(=O)(=O)c2ccc(Cl)cc2)CCN1	%	-8.48
O=C(c1cscn1)N1CCC2(CCN(S(=O)(=O)c3ccccc3)C2)C1 (configuration not stated)	%	11
Cc1cccc(CNC2CCCc3c2cnn3Cc2ccccc2)c1 (configuration not stated)	%	-16.6
O=C(NCCN1CCCC1)C1(c2ccc(Cl)cc2)CCOCC1	%	-2.16
COCCN1C[C@H]2CN(C(=O)C3CC3)CCN2C1=O	%	7.37
CSCc1noc(CNC(=O)C2CCN(C(C)C)CC2)n1	%	-2.86
C1Cc2nc(CCNc3nc(C4CC4)nc4c3CCNCC4)sc2C1	%	-10.4
O=S1(=O)NCC2(CCN(c3ncc(F)cn3)CC2)COc2ccccc21	%	4.74
CCN1CC2(CCC1=O)CCN(C(=O)C(O)c1cccc(Cl)c1)CC2 (configuration not stated)	%	0.636
CCC1c2ccsc2CCN1C(=O)NCCNc1ncccn1 (configuration not stated)	%	-13.6
CCn1cnnc1C1CCN(C(=O)c2cnc3ccccc3n2)CC1	%	-8.59
Cc1cccc(N2CCOC(C(=O)O)C2)c1 (configuration not stated)	%	-8.89
Cc1ccc(N(CCC#N)C(=O)CCc2cccnc2)cc1C	%	-7.68
NC(=O)C1CN(c2ccc3c(Cl)ccnc3c2F)CCO1 (configuration not stated)	%	3.06
CN1CCCC(c2cccc(CCC(=O)NCc3ccccn3)n2)C1 (configuration not stated)	%	-14
CC(C)c1nc(C2CCCN2c2ccnc(C3CCCC3)n2)no1 (configuration not stated)	%	28.5
Nc1nccc(-c2c[nH]nc2C2CCCCC2)n1	%	36.5
O=C(CCn1cccn1)NS(=O)(=O)N1CCCc2ccccc21	%	5.65
CCOc1ccnc(N2CCN(C(=O)c3cccnc3)CC2)n1	%	-5.19
C[C@H]1CN(C)C[C@@]12COCCN(C(=O)Cc1ccccc1)C2	%	3.65
CN(C(=O)c1ccc[nH]1)C1CC(=O)N(Cc2ccccc2)C1=O (configuration not stated)	%	8.02
CSCC[C@@H]1CN2CCC[C@H]2CN1Cc1coc2ccc(C)cc2c1=O	%	2.89
Cc1cc(NC(=O)N2CCOCC2)nn1-c1ccccc1Cl	%	11.1
COc1ccc(-c2cccc(-c3ccn(CCN(C)C)n3)c2)nn1	%	-1.39
CN(CC(=O)NC(Cc1ccccc1)C1CCCC1)S(C)(=O)=O (configuration not stated)	%	15.1
Cc1nnc(CN2CCN(C)C3(CCNC(=O)CC3)C2)s1 (configuration not stated)	%	-8.22
Cc1cnc(C)c(N2C[C@H]3OC(=O)N(C4CCCC4)[C@H]3C2)n1	%	12.5
CCn1c(N)nc2cc(C(=O)NCc3cccc(C)c3C)cnc21	%	19.7
O=C(CC1CCCO1)Nc1cccc(N2CCN(CC3CC3)CC2)c1 (configuration not stated)	%	-0.699
Cc1nnc(N2C[C@H](OCc3cccnc3)[C@H]3OCCC[C@H]32)s1	%	10.8
O=C(Cc1ccsc1)N1C[C@@H]2COC[C@]2(COc2cccnc2)C1	%	-99.3
Cc1noc(-c2cccnc2N(C)Cc2cc(C)on2)n1	%	-5.1
OCCOc1ccccc1CN1CCCC(O)(CO)C1 (configuration not stated)	%	-38.7
O=C(Nc1cc(C(F)(F)F)ccc1Cl)c1ccc(N2CCCC2)nn1	%	-4.43
CCOc1ccc(C#N)cc1NCc1cc(C)on1	%	-60.8
O=C(NC1CC1)C1CN(c2nc3ccccc3s2)CCN1 (configuration not stated)	%	-49.4
CC(C)NC(=O)NCCCc1cc(N)n(-c2ccccc2)n1	%	-6.78
Cc1ccccc1C(C(=O)O)N(C)CC1CCOCC1 (configuration not stated)	%	3.88
CN1CCC(CN(C)C(=O)c2cc(C3CCCN3C)ccn2)CC1 (configuration not stated)	%	-28.3
COc1ccccc1OC1(C(=O)O)CCN(c2nccnc2C)CC1	%	-10.4
c1ncn(Cc2nnc(C3CCN(C4CCOCC4)CC3)n2C2CC2)n1	%	-3.51
Cc1cnn(CC2CCCN2C(=O)CCc2c(C)noc2C)c1 (configuration not stated)	%	-5.81

Every entry's value here was drawn from ChEMBL document CHEMBL4513216.
